experiment: LNP particle size by dynamic light scattering (Zetasizer Nano ZS); format: physicochemical; conditions: Table 4; N/P ratio 3:1; DMPE-PEG2000
MEASURE_NAME: <d>N (nm)

Request: Requested field: <d>N (nm). Item: CCCCCCCCC(C)OC(=O)CCCCCCCC(CCCCCCCC(=O)OC(CCCCCCCC)CCCCCCCC)NC1CC2(COC2)C1 (centres unmarked)
Result: 56

Request: Queued: CCCCCCCCC(C)OC(=O)CCCCCCC(CCCCCCC(=O)OC(CCCCCCCC)CCCCCCCC)NC1CC2(COC2)C1 (centres unmarked)
Result: 50

Request: Queued: CCCCCCCCC(C)OC(=O)CCCCCCC(CCCCCCC(=O)OCC(CCCCCCC)CCCCCCC)NC1CC2(COC2)C1 (centres unmarked)
Result: 51

Request: Queued: CCCCCC(CCCCC)CCOC(=O)CCCCCCCCC(CCCCCCCCC(=O)OCCC(CCCCC)CCCCC)NC1CCOCC1
Result: 72

Request: Queued: CCCCCCCCC(CCCCCCCC)OC(=O)CCCCCCC(CCCCCCC(=O)OC(CCCCCCCC)CCCCCCCC)NC1CC2(COC2)C1
Result: 45

Request: Queued: CCCCCCCCCOC(=O)CCCCCCC(CCCCCCC(=O)OC(CCCCCCCC)CCCCCCCC)NC1CC2(COC2)C1 (centres unmarked)
Result: 52

Request: Queued: CCCCCCC(CCCCCC)COC(=O)CCCCCCCC(CCCCCCCC(=O)OCC(CCCCCC)CCCCCC)NC1CC2(COC2)C1
Result: 51

Request: Queued: CCCCCCCCCOC(=O)CCCCCC(CCCCCC(=O)OC(CCCCCCCC)CCCCCCCC)NC1CC2(COC2)C1 (centres unmarked)
Result: 57

Request: Queued: CCCCCC(CCCCC)CCOC(=O)CCCCCCCCC(CCCCCCCCC(=O)OCCC(CCCCC)CCCCC)NCC1CCCCO1 (centres unmarked)
Result: 61

Request: Queued: CCCCC/C=C\C/C=C\CCCCCCCCC(CCCCCCCC/C=C\C/C=C\CCCCC)OC(=O)CCCN(C)C [MC3, reference compound]
Result: 71

Request: Queued: CCCCCC(CCCCC)CCOC(=O)CCCCCCCCC(CCCCCCCCC(=O)OCCC(CCCCC)CCCCC)NCC1CCOCC1
Result: 77

Request: Queued: CCCCCCCCCOC(=O)CCCCCC(CCCCCC(=O)OC(CCCCCCCC)CCCCCCCC)NCC1COC1 (centres unmarked)
Result: 53

Request: Queued: CCCCCCCCC(CCCCCCCC)OC(=O)CCCCCCCC(CCCCCCCC(=O)OC(CCCCCCCC)CCCCCCCC)NC1CC2(COC2)C1
Result: 47

Request: Queued: CCCCCC(CCCCC)CCOC(=O)CCCCCC(CCCCCC(=O)OCCC(CCCCC)CCCCC)NC1CCOCC1
Result: 60

---

assay: LNP particle size by dynamic light scattering (Zetasizer Nano ZS); assay type: physicochemical; conditions: Table 5; N/P ratio 3:1; DMPE-PEG2000
MEASURE_NAME: <d>Z (nm)

Request: Requested field: <d>Z (nm). Item: CCCCCCCCC(C)OC(=O)CCCCCCCC(CCCCCCCC(=O)OC(CCCCCCCC)CCCCCCCC)NCC1CCOCC1 (stereo not drawn)
Result: 77

Request: Queued: CCCCCCCCC(C)OC(=O)CCCCCCCC(CCCCCCCC(=O)OC(CCCCCCCC)CCCCCCCC)NCC1CCOC1 (stereo not drawn)
Result: 73

Request: Queued: CCCCCCCCC(CC)OC(=O)CCCCCCCC(CCCCCCCC(=O)OC(CCCCCCCC)CCCCCCCC)NCC1CCOCC1 (stereo not drawn)
Result: 69

Request: Queued: CCCCCCCCC(CCCCCCCC)OC(=O)CCCCCCCC(CCCCCCCC(=O)OCCC(CC)CCCCCC)NC1CC2(COC2)C1 (stereo not drawn)
Result: 80

Request: Queued: CCCCC/C=C\C/C=C\CCCCCCCCC(CCCCCCCC/C=C\C/C=C\CCCCC)OC(=O)CCCN(C)C [MC3, reference compound]
Result: 82

Request: Queued: CCCCCCCCC(CC)OC(=O)CCCCCCCC(CCCCCCCC(=O)OC(CCCCCCCC)CCCCCCCC)NC1CC2(COC2)C1 (stereo not drawn)
Result: 76

---

Assay: mRNA encapsulation efficiency of LNP formulations (Quant-it Ribogreen assay with Triton-X100)
Assay type: physicochemical
Conditions: Table 3; N/P ratio 3:1; DMPE-PEG2000
Protocol: A solution of eGFP mRNA (purchased from TriLink Biotechnologies) in citrate buffer was prepared by mixing mRNA dissolved in MilliQ-water, 100 mM citrate buffer (pH 3) and MilliQ-water to give a solution of 50 mM citrate. […] The final mRNA concentration and encapsulation efficiency percentage (% EE) was measured by Quant-it Ribogreen Assay Kit (ThermoFischer Scientific Inc.) using Triton-X100 to disrupt the LNPs. The mRNA encapsulation efficiency was determined according to the following equation: […]
MEASURE_NAME: % EE (%)

Request: Requested field: % EE. Item: CCCCCC(CCCCC)CCOC(=O)CCCCCCCC(CCCCCCCC(=O)OCCC(CCCCC)CCCCC)NCC1COCCO1 (stereo not shown)
Result: 93

Request: Queued: CCCCCC(CCCCC)CCOC(=O)CCCCCCCC(CCCCCCCC(=O)OCCC(CCCCC)CCCCC)NCCC1CCOCC1
Result: 94

Request: Queued: CCCCC/C=C\C/C=C\CCCCCCCCC(CCCCCCCC/C=C\C/C=C\CCCCC)OC(=O)CCCN(C)C [MC3, reference compound]
Result: 98

Request: Queued: CCCCCC(CCCCC)CCOC(=O)CCCCCCCCC(CCCCCCCCC(=O)OCCC(CCCCC)CCCCC)NC1CC2(COC2)C1
Result: 95

Request: Queued: CCCCCC(CCCCC)CCOC(=O)CCCCCCCC(CCCCCCCC(=O)OCCC(CCCCC)CCCCC)NCC1CCCCO1 (stereo not shown)
Result: 87

Request: Queued: CCCCCC(CCCCC)CCOC(=O)CCCCCC(CCCCCC(=O)OCCC(CCCCC)CCCCC)NC1CC2(COC2)C1
Result: 93

Request: Queued: CCCCCC(CCCCC)CCOC(=O)CCCCCCCC(CCCCCCCC(=O)OCCC(CCCCC)CCCCC)NCC1CCCO1 (stereo not shown)
Result: 95

---

test: LNP particle size by dynamic light scattering (Zetasizer Nano ZS); format: physicochemical; details: Table 5; N/P ratio 3:1; DMPE-PEG2000
MEASURE_NAME: <d>N (nm)

Request: Requested field: <d>N (nm). Item: CCCCCCCCC(CC)OC(=O)CCCCCCCC(CCCCCCCC(=O)OC(CCCCCCCC)CCCCCCCC)NC1CC2(COC2)C1 (stereo not shown) [Compound 38]
Result: 61

Request: Queued: CCCCCCCCC(CCCCCCCC)OC(=O)CCCCCCCC(CCCCCCCC(=O)OCCC(C)CCCCCC)NC1CC2(COC2)C1 (stereo not shown) [Compound 42]
Result: 66

Request: Queued: CCCCCCCCC(CCCCCCCC)OC(=O)CCCCCCCC(CCCCCCCC(=O)OCC(C)CCCCCCC)NC1CC2(COC2)C1 (stereo not shown) [Compound 22]
Result: 63

Request: Queued: CCCCCCCCC(CC)OC(=O)CCCCCCCC(CCCCCCCC(=O)OC(CCCCCCCC)CCCCCCCC)NCC1COC1 (stereo not shown) [Compound 41]
Result: 54

Request: Queued: CCCCCCCCC(CCCCCCCC)OC(=O)CCCCCCCC(CCCCCCCC(=O)OCCC(C)CCCCCC)NCC1CCOCC1 (stereo not shown) [Compound 43]
Result: 62

Request: Queued: CCCCCCCCC(CCCCCCCC)OC(=O)CCCCCCCC(CCCCCCCC(=O)OCCC(CC)CCCCCC)NC1CC2(COC2)C1 (stereo not shown) [Compound 44]
Result: 65

Request: Queued: CCCCCCCCC(C)OC(=O)CCCCCCCC(CCCCCCCC(=O)OC(CCCCCCCC)CCCCCCCC)NCC1CCOCC1 (stereo not shown) [Compound 35]
Result: 59

Request: Queued: CCCCCCCCC(CC)OC(=O)CCCCCCCC(CCCCCCCC(=O)OC(CCCCCCCC)CCCCCCCC)NCC1CCOC1 (stereo not shown) [Compound 40]
Result: 53

Request: Queued: CCCCC/C=C\C/C=C\CCCCCCCCC(CCCCCCCC/C=C\C/C=C\CCCCC)OC(=O)CCCN(C)C [MC3, reference compound]
Result: 66

Request: Queued: CCCCCCCCC(C)OC(=O)CCCCCCCC(CCCCCCCC(=O)OC(CCCCCCCC)CCCCCCCC)NCC1CCOC1 (stereo not shown) [Compound 36]
Result: 57

Request: Queued: CCCCCCCCC(CCCCCCCC)OC(=O)CCCCCCCC(CCCCCCCC(=O)OCC(C)CCCCCCC)NCC1CCOC1 (stereo not shown) [Compound 21]
Result: 57

Request: Queued: CCCCCCCCC(C)OC(=O)CCCCCCCC(CCCCCCCC(=O)OC(CCCCCCCC)CCCCCCCC)NCC1COC1 (stereo not shown) [Compound 37]
Result: 47

Request: Queued: CCCCCCCCC(CC)OC(=O)CCCCCCCC(CCCCCCCC(=O)OC(CCCCCCCC)CCCCCCCC)NCC1CCOCC1 (stereo not shown) [Compound 39]
Result: 55
